Affinity by entry:
Tested on: MAP2
Assay: Binding (affinity) by displacement of PREG-3H

Answered examples (5):
compound | Affinity
CO[C@H]1CC[C@@]2(C)C(CCC3C2CC[C@@]2(C)C3CC[C@@H]2[C@@H](C)O)C1 (some centres unmarked) | 65% of PREG
CO[C@H]1CC[C@@]2(C)[C@@H](CC[C@@H]3[C@@H]2CC[C@]2(C)[C@@H](C(C)=O)CC[C@@H]32)C1 | 87% of PREG
CC(=O)OC(C)C1CCC2C3CC=C4CC(O)CCC4(C)C3CCC12C (stereo not drawn) [Pregna-5-ene-3β, 20β-dio1-20-acetate] | 60% of PREG
CC(=O)[C@@]12C[C@@H]1C[C@H]1[C@@H]3CC=C4C[C@@H](O)CC[C@]4(C)[C@H]3CC[C@@]12C | 62% of PREG
CO[C@H]1CC[C@@]2(C)C(=CC[C@H]3C4=CC[C@H](C(C)=O)[C@@]4(C)CC[C@@H]32)C1 | 102% of PREG

Input line: Item CO[C@H]1CC[C@@]2(C)C(=CC[C@@H]3[C@@H]2CC[C@@]2(C)[C@H]3CC[C@@]2(C(C)=O)C(Cl)Cl)C1 with MAP2 - Affinity?
Output line: 53% of PREG

Input line: Another compound to look at: CC(=O)[C@H]1[C@H](C)C[C@H]2[C@@H]3CC=C4C[C@@H](O)CC[C@]4(C)[C@H]3CC[C@@]21C
Output line: 80% of PREG

Input line: Next entry: CC(=O)[C@H]1[C@@H](C)C[C@H]2[C@@H]3CC=C4C[C@@H](O)CC[C@]4(C)[C@H]3CC[C@@]21C
Output line: 63% of PREG

Input line: Same question, CC(=O)[C@H]1[C@H](C)C[C@H]2[C@@H]3CC[C@H]4C[C@@H](O)CC[C@]4(C)[C@H]3CC[C@@]21C [3β-hydroxy-5α-pregnane-20-one-16α-methyl] this time
Output line: 57% of PREG

Input line: Record: CO[C@H]1CC[C@@]2(C)C(=CC[C@H]3[C@@H]4CC[C@H](C(C)=O)[C@@]4(C)CC[C@@H]32)C1
Output line: 100% of PREG

Input line: CC(=O)[C@H]1CC[C@H]2[C@@H]3CC=C4C[C@@H](O)CC[C@]4(C)[C@H]3CC[C@]12C [Pregnenolone (PREG), 3β-hydroxypregn-5α-en-20α-one, reference compound] , same question.
Output line: 100% of PREG
